system: Pseudomonas aeruginosa; assay: Antibacterial activity against Pseudomonas aeruginosa ATCC 27853 assessed as growth inhibition at 5 to 50 ug/ml after 24 hrs by microplate assay; assay type: functional, organism-based
Calls of active or inactive are those of the source. The calls are words filed in the database; no cut-off is given here.
Permitted responses: Yes = active, No = inactive

Example entries begin here.
C[C@@H]1CC[C@@]2(C)C(=O)c3ccoc3C[C@@]12C : Yes
CC(C)[C@H]1CC[C@]2(C)C[C@]3(O)C(=CC(=O)[C@H]3C)[C@@H](C)CC[C@@H]12 : Yes
COC(=O)[C@@]12Cc3occc3C(=O)[C@]1(C)CC[C@H]2C : No

# input for lookup
Exercise: What was the test verdict on C=CC1(O)CC[C@@]2(C)[C@H](C)CC[C@@]2(C)[C@@H]1C (some centres undefined) ?
Solution: Yes

====

system: Pseudomonas aeruginosa; experiment: Inhibition of quorum sensing activity in Pseudomonas aeruginosa ATCC 27853 assessed as N-acylhomoserin lactones production at 5 to 50 ug/ml after 24 hrs by measuring beta-galactosidase activity by spectrophotometry
Calls of active or inactive are those of the source. The rule behind the calls is not given here.
MEASUREMENT_NAME: inhibition

Example entries begin here.
C=CC1(O)CC[C@@]2(C)[C@H](C)CC[C@@]2(C)[C@@H]1C (stereo partly specified) : Active
C=C1CC[C@H]2[C@@H]([C@@H]3[C@@H]1CC[C@@]3(C)O)C2(C)C : 33%
CC1(C)[C@@H]2[C@@H]3[C@H](CC[C@@]3(C)O)[C@@](C)(O)CC[C@@H]21 : 80%
C[C@@H]1CC[C@@]2(C)C(=O)c3ccoc3C[C@@]12C : Active

Exercise: What value of inhibition has been reported for the following compound? CC(C)[C@H]1CC[C@]2(C)C[C@]3(O)C(=CC(=O)[C@H]3C)[C@@H](C)CC[C@@H]12
Solution: Active

Reference source: ChEMBL document CHEMBL1772983
